Reference source: patent US9745291B2

Target Entity: PRMT5/MEP50 (Homo sapiens (Human), UniProt O14744)
Sequence (O14744 other isoform, or with tags, fused parts or gaps): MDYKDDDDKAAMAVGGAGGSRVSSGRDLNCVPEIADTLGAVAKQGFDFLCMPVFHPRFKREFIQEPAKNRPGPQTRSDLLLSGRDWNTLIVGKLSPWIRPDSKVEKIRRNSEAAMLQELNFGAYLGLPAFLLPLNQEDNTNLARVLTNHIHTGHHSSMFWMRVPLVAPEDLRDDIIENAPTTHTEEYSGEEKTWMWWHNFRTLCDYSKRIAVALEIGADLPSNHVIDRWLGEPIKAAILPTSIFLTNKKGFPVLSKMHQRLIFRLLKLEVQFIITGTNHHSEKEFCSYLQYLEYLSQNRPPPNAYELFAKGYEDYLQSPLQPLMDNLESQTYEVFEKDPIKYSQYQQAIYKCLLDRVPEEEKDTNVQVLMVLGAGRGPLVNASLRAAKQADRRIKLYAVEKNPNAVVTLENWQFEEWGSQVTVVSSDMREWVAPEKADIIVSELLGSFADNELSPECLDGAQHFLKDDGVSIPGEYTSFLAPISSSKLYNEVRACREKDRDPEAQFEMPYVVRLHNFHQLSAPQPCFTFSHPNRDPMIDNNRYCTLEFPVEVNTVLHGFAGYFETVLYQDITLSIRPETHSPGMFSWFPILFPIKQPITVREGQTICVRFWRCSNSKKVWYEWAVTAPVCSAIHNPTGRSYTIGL
Sequence (Q9BQA1 other isoform, or with tags, fused parts or gaps partner): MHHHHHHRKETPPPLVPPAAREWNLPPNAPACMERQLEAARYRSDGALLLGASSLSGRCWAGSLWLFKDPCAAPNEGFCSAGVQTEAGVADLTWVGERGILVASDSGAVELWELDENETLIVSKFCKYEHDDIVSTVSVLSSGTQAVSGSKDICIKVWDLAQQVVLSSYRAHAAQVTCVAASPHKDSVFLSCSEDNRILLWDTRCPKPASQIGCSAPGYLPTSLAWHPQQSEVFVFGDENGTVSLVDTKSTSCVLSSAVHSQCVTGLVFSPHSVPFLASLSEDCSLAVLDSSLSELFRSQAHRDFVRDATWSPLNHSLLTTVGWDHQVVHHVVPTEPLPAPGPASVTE
Assay Notes: PRMT5 Biochemical Assay (PRMT5/MEP50 enzyme assay on peptide substrate, 3H-SAM Flashplate)
Measurement Setup: PRMT5 biochemical assay; read-out: Biochemical IC50
Excerpt: S-adenosylmethionine (SAM), S-adenosylhomocysteine (SAH), bicine, KCl, Tween20, dimethylsulfoxide (DMSO), bovine skin gelatin (BSG), and Tris(2-carboxyethyl)phosphine hydrochloride solution (TCEP) were purchased from Sigma-Aldrich at the highest level of purity possible. ^3H-SAM was purchase from American Radiolabeled Chemicals with a specific activity of 80 Ci/mmol. 384-well streptavidin Flashplates were purchased from PerkinElmer. […]
pIC50: −log10 of the molar value.

{"Molecule": "O=C(COc1ccccc1[C@H]1CCCCN1)NC[C@@H](O)CN1CCc2ccccc2C1 [Compound 235]", "pIC50": "5.00 to 6.00"}
{"Molecule": "O=C(COc1cccc2cccnc12)NCC(O)CN1Cc2ccccc2C(F)(F)C1 (stereo not drawn) [Compound 144]", "pIC50": "< 5.00"}
{"Molecule": "O=C(COc1ccccc1[C@H]1CCCNC1)NC[C@H](O)CN1CCc2ccccc2C1 [Compound 261]", "pIC50": "> 7.00"}
{"Molecule": "O=C(COc1ccccc1S(=O)(=O)N1CCNCC1)NCC(O)CN1CCc2ccccc2C1 (stereo not drawn) [Compound 107]", "pIC50": "> 7.00"}
{"Molecule": "O=C(COC1CCOC1)NCC(O)CN1CCc2ccccc2C1 (stereo not drawn) [Compound 171]", "pIC50": "5.00 to 6.00"}
{"Molecule": "O=C(NC[C@H](O)CN1CCc2ccccc2C1)[C@H]1Cc2ccccc2CN1 [Compound 185]", "pIC50": "6.00 to 7.00"}
{"Molecule": "CN1CCN(CCOCC(=O)NCC(O)CN2CCc3ccccc3C2)CC1 (stereo not drawn) [Compound 176]", "pIC50": "5.00 to 6.00"}
{"Molecule": "O=C(NC[C@H](O)CN1CCc2ccccc2C1)C1COc2ccccc2O1 (stereo partly drawn) [Compound 183]", "pIC50": "6.00 to 7.00"}
{"Molecule": "O=C(COc1ccccc1[C@H]1CCCNC1)NC[C@@H](O)CN1CCc2ccccc2C1 [Compound 263]", "pIC50": "6.00 to 7.00"}

====

Each record here notes measured IC50.
Target Entity: PRMT5/MEP50 (Homo sapiens (Human))
Assay Notes: PRMT5 Biochemical Assay (PRMT5/MEP50 enzyme assay on peptide substrate, 3H-SAM Flashplate)
Measurement Setup: PRMT5 biochemical assay; read-out: Biochemical IC50

{"Molecule": "NS(=O)(=O)c1ccccc1OCC(=O)NCC(O)CN1CCc2ccccc2C1 (stereo not drawn) [Compound 65]", "IC50": "< 100 nM"}
{"Molecule": "O=C(COC1CCCOC1)NCC(O)CN1CCc2ccccc2C1 (stereo not drawn) [Compound 166]", "IC50": "1000 to 10000 nM"}
{"Molecule": "O=C(Cc1c[nH]c2ccccc12)NC[C@H](O)CN1CCc2ccccc2C1 [Compound 182]", "IC50": "101 to 1000 nM"}
{"Molecule": "CC(Oc1cccc2cccnc12)C(=O)NCC(O)CN1CCc2ccccc2C1 (stereo not drawn) [Compound 39]", "IC50": "< 100 nM"}
{"Molecule": "COc1cccc(OCC(=O)NCC(O)CN2CCc3ccccc3C2)c1 (stereo not drawn) [Compound 20]", "IC50": "< 100 nM"}
{"Molecule": "Cn1c(CCC(=O)NC[C@H](O)CN2CCc3ccccc3C2)nc2ccccc21 [Compound 222]", "IC50": "101 to 1000 nM"}
{"Molecule": "O=C(COc1cccc(-c2c[nH]cn2)c1)NC[C@@H](O)CN1CCc2ccccc2C1 [Compound 195]", "IC50": "1000 to 10000 nM"}
{"Molecule": "CS(=O)(=O)N1CCc2c(cccc2OCC(=O)NCC(O)CN2CCc3ccccc3C2)C1 (stereo not drawn) [Compound 102]", "IC50": "< 100 nM"}
{"Molecule": "CN(C)S(=O)(=O)c1ccccc1OCC(=O)NCC(O)CN1CCc2ccccc2C1 (stereo not drawn) [Compound 109]", "IC50": "< 100 nM"}
{"Molecule": "O=C(COc1ccccc1C1CNCC(O)C1)NC[C@@H](O)CN1CCc2ccccc2C1 (stereo partly drawn) [Compound 237]", "IC50": "101 to 1000 nM"}
{"Molecule": "O=C(CCc1nc2ccccc2o1)NC[C@@H](O)CN1CCc2ccccc2C1 [Compound 200]", "IC50": "1000 to 10000 nM"}
{"Molecule": "O=C(CCc1nc2ccccc2s1)NC[C@@H](O)CN1CCc2ccccc2C1 [Compound 193]", "IC50": "1000 to 10000 nM"}
{"Molecule": "CN(C[C@H](O)CN1CCc2ccccc2C1)C(=O)CCc1nc2ccccc2[nH]1 [Compound 228]", "IC50": "< 100 nM"}
{"Molecule": "Cc1cn(C)c2cccc(OCC(=O)NC[C@H](O)CN3CCc4ccccc4C3)c12 [Compound 163]", "IC50": "< 100 nM"}
{"Molecule": "O=C(COc1ccccc1C1CCCCC1)NCC(O)CN1CCc2ccccc2C1 (stereo not drawn) [Compound 40]", "IC50": "< 100 nM"}
{"Molecule": "O=C(COc1cccc2c1OCCO2)NCC(O)CN1CCc2ccccc2C1 (stereo not drawn) [Compound 100]", "IC50": "< 100 nM"}
{"Molecule": "O=C(CCc1ncc[nH]1)NC[C@H](O)CN1CCc2ccccc2C1 [Compound 240]", "IC50": "101 to 1000 nM"}
{"Molecule": "CS(=O)(=O)Nc1cccc(OCC(=O)NCC(O)CN2CCc3ccccc3C2)c1 (stereo not drawn) [Compound 28]", "IC50": "< 100 nM"}
